Recorded pKB by entry
# System: 5-hydroxytryptamine receptor 1B (Oryctolagus cuniculus)
# test_summary: Binding affinity against vascular 5-hydroxytryptamine 1B receptor, measured using ring preparations of rabbit saphenous vein (RbSV)
No unit in the answer, please; the number alone is enough.

Past entries and their recorded results:
compound	experimental_result
CN(C)CCc1c(C(=O)NCc2ccccc2N)[nH]c2ccc(CCN3C(=O)NC(c4ccccc4)(c4ccccc4)C3=O)cc12	6.31
COc1cccc(CNC(=O)c2[nH]c3ccc(CCN4C(=O)NC(C)(C)C4=O)cc3c2CCN(C)C)c1	6.47
CN(C)CCc1c(C(=O)NCc2ccccc2)[nH]c2ccc(CCN3C(=O)NC(C)(C)C3=O)cc12	7.09
Cc1ccc(CNC(=O)c2[nH]c3ccc(CCN4C(=O)NC(C)(C)C4=O)cc3c2CCN(C)C)cc1	7

Exercise: Given CN(C)CCc1c(C(=O)NCc2ccccc2)[nH]c2ccc(CCN3C(=O)C4CCCN4C3=O)cc12 (centres undefined) , state its recorded pKB.
Solution: 6.66

Exercise: Given `CN(C)CCc1c(C(=O)NCc2ccccc2)[nH]c2ccc(CCN3C(=O)CNC3=O)cc12` , state its recorded pKB.
Solution: 7.36

Exercise: Given CN(C)CCc1c(C(=O)NCc2ccccc2)[nH]c2ccc(CCN3C(=O)N(C)C(C)(c4ccccc4)C3=O)cc12 (centres undefined) , state its recorded pKB.
Solution: 7.19

Exercise: Given `CN(C)CCc1c(C(=O)NCc2cccc(NS(C)(=O)=O)c2)[nH]c2ccc(CCN3C(=O)NC(C)(C)C3=O)cc12` , state its recorded pKB.
Solution: 5.67

Exercise: Given `CN(C)CCc1c(C(=O)NCc2ccc(S(C)(=O)=O)cc2)[nH]c2ccc(CCN3C(=O)NC(C)(C)C3=O)cc12` , state its recorded pKB.
Solution: 5.91

Exercise: Given `CCOC(=O)c1[nH]c2ccc(CCN3C(=O)CNC3=O)cc2c1CCN(C)C` , state its recorded pKB.
Solution: 7.42

---

# System: 5-hydroxytryptamine receptor 1B (Oryctolagus cuniculus)
# test_summary: Binding affinity against vascular 5-hydroxytryptamine 1B receptor, measured using ring preparations of rabbit saphenous vein (RbSV)
Returns one of true or false; true when pKB is >= 6.

A selection of reference data follows.
molecule	target_of_assay	class_label
CONC(=O)c1[nH]c2ccc(CCN3C(=O)NC(C)(C)C3=O)cc2c1CCN(C)C	5-hydroxytryptamine receptor 1B (Oryctolagus cuniculus)	false
CN(C)CCc1c(C(=O)NCc2ccc(NS(C)(=O)=O)cc2)[nH]c2ccc(CCN3C(=O)NC(C)(C)C3=O)cc12	5-hydroxytryptamine receptor 1B (Oryctolagus cuniculus)	false

Exercise: Could you tell me if the measured pKB of `CN(C)CCc1c(C(=O)NCc2ccc(-c3ccccc3)cc2)[nH]c2ccc(CCN3C(=O)NC(C)(C)C3=O)cc12` reaches 6 or more?
Solution: false

Exercise: Could you tell me if the measured pKB of `CC(=O)Nc1cccc(CNC(=O)c2[nH]c3ccc(CCN4C(=O)NC(C)(C)C4=O)cc3c2CCN(C)C)c1` reaches 6 or more?
Solution: false

Exercise: Could you tell me if the measured pKB of `CN(C)CCc1c(C(=O)NCc2ccc(Cl)cc2)[nH]c2ccc(CCN3C(=O)CNC3=O)cc12` reaches 6 or more?
Solution: true

Exercise: Could you tell me if the measured pKB of `CN(C)CCc1c(C(=O)NCc2ccc(Cl)cc2)[nH]c2ccc(CCN3C(=O)NC(C)(C)C3=O)cc12` reaches 6 or more?
Solution: true

Exercise: Could you tell me if the measured pKB of `CN(C)CCc1c(C(=O)NCC(N)=O)[nH]c2ccc(CCN3C(=O)NC(C)(C)C3=O)cc12` reaches 6 or more?
Solution: false

Exercise: Could you tell me if the measured pKB of CN(C)CCc1c(C(=O)NCc2ccccc2N)[nH]c2ccc(CCN3C(=O)NC(C)(c4ccccc4)C3=O)cc12 (stereo unspecified) reaches 6 or more?
Solution: true

Exercise: Could you tell me if the measured pKB of `CN(C)CCc1c(C(=O)NCc2ccccc2N)[nH]c2ccc(CCN3C(=O)CNC3=O)cc12` reaches 6 or more?
Solution: true

Exercise: Could you tell me if the measured pKB of CN(C)CCc1c(C(=O)NCc2ccccc2)[nH]c2ccc(CCN3C(=O)NC(C)(c4ccccc4)C3=O)cc12 (stereo unspecified) reaches 6 or more?
Solution: true

Exercise: Could you tell me if the measured pKB of `CN(C)CCc1c(C(=O)NCc2cccc(N)c2)[nH]c2ccc(CCN3C(=O)NC(C)(C)C3=O)cc12` reaches 6 or more?
Solution: true
